Each recorded value in this set is attributed to ChEMBL document CHEMBL1201862.

Some compounds, each annotated with its measured GI50.
- Tested on: SN12C
- PROCEDURE_DETAILS: NCI tumour cell line growth inhibition, 48 h
Activity calls are given as the source filed them. Cut-off read from the data, not from the text of the source: active = GI50 up to about 1.1 µM and inactive = higher.

1) COc1ccc(NC(=O)NS(=O)(=O)c2ccc(C)cc2)nn1 | > 100 µM (inactive)
2) O=NN(CCCl)C(=O)N[C@H]1CCCC[C@@H]1Cl | 88.1 µM (inactive)
3) CC(C)=CCC[C@@H](C)c1c2ncc[nH]c-2c(C)c(=O)c1O | 28.8 µM (inactive)
4) CCOc1cc2c[n+](C)c3c4cc(OC)c(OC)cc4ccc3c2cc1OC | > 100 µM (inactive)
5) CC(=O)OC1(C#N)CC2OC1C1C2N1C(=O)c1ccccc1 (stereo unspecified) | > 100 µM (inactive)

Problem: If you can, please state the reported GI50 value of O=C1/C(=C/c2ccc(O)cc2)CC/C1=C\c1ccc(O)cc1 .
Solution: > 64.6 µM (inactive)

Problem: Quick check: GI50 of COc1cccc2cc(C(=O)Nc3ccccc3)c(=N)oc12 ?
Solution: > 100 µM (inactive)

Problem: Using the record for COc1ccc(/C=C/C(=O)CC(=O)/C=C/c2ccc(OC)cc2)cc1 , report its GI50.
Solution: 61.5 µM (inactive)
